Where do the numbers come from? From patent US6756387B2.

- target.system: cloned human δ receptor (HDELTA) (Homo sapiens, UniProt P41143)
- Construct: expressed in transfected cells; host or cells: human 293S (HEK-293S) cells, geneticin-selected
- Sequence (P41143 whole entry): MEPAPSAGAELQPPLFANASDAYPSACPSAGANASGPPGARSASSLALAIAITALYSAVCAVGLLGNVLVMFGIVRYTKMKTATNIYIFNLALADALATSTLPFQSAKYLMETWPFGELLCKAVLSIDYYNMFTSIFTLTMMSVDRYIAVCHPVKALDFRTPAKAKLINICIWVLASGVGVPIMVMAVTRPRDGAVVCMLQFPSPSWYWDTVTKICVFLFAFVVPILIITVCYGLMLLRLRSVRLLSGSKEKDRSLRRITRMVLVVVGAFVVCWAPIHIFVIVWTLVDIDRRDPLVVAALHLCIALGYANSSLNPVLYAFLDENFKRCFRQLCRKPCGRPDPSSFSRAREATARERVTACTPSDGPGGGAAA
- method.summary: GTP[γ]35S binding functional assay, membranes from HEK-293S cells expressing cloned human opioid receptors
- Format: biochemical
- condition.context: HEK-293S membranes, read-out: HDELTA % E Max
measurement.label: Emax (%)

- CCN(CC)C(=O)c1ccc(C(=C2CCN(Cc3ccco3)CC2)c2cccc(O)c2)cc1: 94.8
- CCN(CC)C(=O)c1ccc(C(=C2CCN(Cc3ccccc3)CC2)c2cccc(O)c2)cc1: 104
- CCN(CC)C(=O)c1ccc(C(=C2CCN(Cc3ncc[nH]3)CC2)c2cccc(O)c2)cc1: 106
- CCN(CC)C(=O)c1ccc(C(=C2CCN(Cc3cccs3)CC2)c2cccc(O)c2)cc1: 98.2
- CCN(CC)C(=O)c1ccc(C(=C2CCN(Cc3ccccn3)CC2)c2cccc(O)c2)cc1: 103
- CCN(CC)C(=O)c1ccc(C(=C2CCN(Cc3ccncc3)CC2)c2cccc(O)c2)cc1: 112
- CCN(CC)C(=O)c1ccc(C(=C2CCN(Cc3c[nH]cn3)CC2)c2cccc(O)c2)cc1: 107
- CCN(CC)C(=O)c1ccc(C(=C2CCN(Cc3nccs3)CC2)c2cccc(O)c2)cc1: 115
